Data origin, for the record: paper PMC7278776

# Target: human recombinant P-gp (Homo sapiens, UniProt P08183)
# Construct: purchased Promega
# Sequence (P08183 whole entry): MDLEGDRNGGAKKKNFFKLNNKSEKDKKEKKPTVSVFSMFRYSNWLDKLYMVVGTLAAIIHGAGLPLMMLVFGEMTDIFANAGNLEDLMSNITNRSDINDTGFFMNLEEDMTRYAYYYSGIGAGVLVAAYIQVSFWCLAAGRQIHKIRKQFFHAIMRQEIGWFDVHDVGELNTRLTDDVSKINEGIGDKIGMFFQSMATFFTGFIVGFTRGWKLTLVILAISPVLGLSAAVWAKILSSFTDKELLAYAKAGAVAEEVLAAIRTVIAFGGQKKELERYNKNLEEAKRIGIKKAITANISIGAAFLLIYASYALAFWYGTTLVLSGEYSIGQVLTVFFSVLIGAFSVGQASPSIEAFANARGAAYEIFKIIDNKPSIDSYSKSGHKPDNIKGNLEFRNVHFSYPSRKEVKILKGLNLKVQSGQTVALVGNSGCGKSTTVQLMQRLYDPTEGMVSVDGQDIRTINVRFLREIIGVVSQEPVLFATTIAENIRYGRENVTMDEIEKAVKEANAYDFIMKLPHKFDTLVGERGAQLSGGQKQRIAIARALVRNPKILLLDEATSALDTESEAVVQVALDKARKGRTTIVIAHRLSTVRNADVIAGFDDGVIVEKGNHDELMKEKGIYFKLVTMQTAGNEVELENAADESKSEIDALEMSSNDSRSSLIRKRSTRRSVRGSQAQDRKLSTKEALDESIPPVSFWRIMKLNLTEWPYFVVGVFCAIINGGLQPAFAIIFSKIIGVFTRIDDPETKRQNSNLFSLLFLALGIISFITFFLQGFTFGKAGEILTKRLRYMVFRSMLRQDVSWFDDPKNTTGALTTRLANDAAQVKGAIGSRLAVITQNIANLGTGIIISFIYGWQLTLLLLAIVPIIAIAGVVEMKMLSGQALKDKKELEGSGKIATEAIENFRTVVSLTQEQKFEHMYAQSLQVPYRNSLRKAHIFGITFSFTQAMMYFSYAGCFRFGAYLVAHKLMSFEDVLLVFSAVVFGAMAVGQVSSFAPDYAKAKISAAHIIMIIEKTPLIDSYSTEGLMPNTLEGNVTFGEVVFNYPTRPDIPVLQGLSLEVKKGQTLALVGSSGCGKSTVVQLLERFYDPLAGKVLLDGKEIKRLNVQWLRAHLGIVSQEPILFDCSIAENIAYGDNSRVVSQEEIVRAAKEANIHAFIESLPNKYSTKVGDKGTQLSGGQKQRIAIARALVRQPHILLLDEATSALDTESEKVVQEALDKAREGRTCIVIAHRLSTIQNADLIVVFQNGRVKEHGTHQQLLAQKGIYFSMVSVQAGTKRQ
# Measurement notes: biochemical
# Recorded conditions: verapamil-stimulated P-gp ATPase, membrane fraction; read-out: P-gp, concentration necessary to halve ATP consumption (IC50)

# Compound, Unit label, IC50
measured = [
    ("[Na+].[Na+].[Na+].[O]=[V]([O-])([O-])[O-] [Orthovanadate, Sodium orthovanadate (Na3VO4), reference compound]", "µM", 18.9),
]

---

# System: ABCB10
# Measurement notes: ABCB10 mRNA expression (real-time PCR)
# Format: cell-based, human
# Recorded conditions: A2780/DOX, 10 µM, 48 h, without doxorubicin
Mark each entry rule met if its ABCB10 Expression Difference sits below 1, and rule not met for all others.

# Compound, Category label
measured = [
    ("COc1cc([C@@H]2Oc3cc([C@H]4Oc5cc(O)cc(O)c5C(=O)[C@@H]4O)ccc3O[C@H]2CO)ccc1O", "rule met"),
    ("COc1cc(C2Oc3cc([C@H]4Oc5cc(O)cc(O)c5C(=O)[C@@H]4O)ccc3OC2CO)ccc1O (stereo partly drawn)", "rule not met"),
    ("COc1cc(C2Oc3cc(-c4oc5cc(O)cc(O)c5c(=O)c4O)ccc3OC2CO)ccc1O (stereo not drawn) [Dehydrosilybin AB, 2,3-dehydrosilybin]", "rule not met"),
    ("COc1cc([C@@H]2Oc3cc(-c4oc5cc(O)cc(O)c5c(=O)c4O)ccc3O[C@H]2CO)ccc1O [Dehydrosilybin B, 2,3-dehydrosilybin B]", "rule not met"),
    ("COc1cc([C@H]2Oc3cc([C@H]4Oc5cc(O)cc(O)c5C(=O)[C@@H]4O)ccc3O[C@@H]2CO)ccc1O", "rule not met"),
    ("COc1cc([C@H]2Oc3cc(-c4oc5cc(O)cc(O)c5c(=O)c4O)ccc3O[C@@H]2CO)ccc1O [Dehydrosilybin A, 2,3-dehydrosilybin A]", "rule not met"),
]
